studySystem: T1, human Trop-2 (on the surface of human cell lines) (human, UniProt P09758 27-323)
T1 sequence: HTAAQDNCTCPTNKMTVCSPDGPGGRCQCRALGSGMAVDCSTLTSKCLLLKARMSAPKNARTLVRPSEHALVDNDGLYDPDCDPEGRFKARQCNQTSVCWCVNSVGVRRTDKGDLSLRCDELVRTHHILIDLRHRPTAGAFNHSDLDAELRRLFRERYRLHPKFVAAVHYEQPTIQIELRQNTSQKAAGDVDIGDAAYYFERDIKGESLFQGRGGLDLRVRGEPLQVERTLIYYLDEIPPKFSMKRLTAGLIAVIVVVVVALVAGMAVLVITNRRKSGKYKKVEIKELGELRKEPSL
test: cell-based or functional assay
Assign Condition met to entries whose ADCC, PBMC killing (LDH), HCC1806, EC50 meets or exceeds 0.06 nM; assign Condition not met to the rest.

binder	labelValue
hz-Ab2-2.4 (antibody, human IgG1, kappa, V domains shown, Humanized antibody) VH: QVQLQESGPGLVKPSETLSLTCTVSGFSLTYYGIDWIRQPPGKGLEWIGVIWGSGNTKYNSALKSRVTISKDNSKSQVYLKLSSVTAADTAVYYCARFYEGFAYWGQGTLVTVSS VL: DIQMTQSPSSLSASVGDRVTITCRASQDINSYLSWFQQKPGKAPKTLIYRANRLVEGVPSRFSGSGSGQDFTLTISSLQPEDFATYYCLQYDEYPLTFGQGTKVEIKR	Condition met
hz-Ab35-2.2 (antibody, human IgG1, kappa, V domains shown, Humanized antibody) VH: QVQLVQSGAEVKKPGASVKVSCKASGYTFTSSDINWVRQRPGQGLEWMGWIYPRDGSKKYNEKFKGRVTMTVDTSTSTVYMELSSLRSEDTAVYYCARRFATVVSNYGLDPWGQGTLVTVSS VL: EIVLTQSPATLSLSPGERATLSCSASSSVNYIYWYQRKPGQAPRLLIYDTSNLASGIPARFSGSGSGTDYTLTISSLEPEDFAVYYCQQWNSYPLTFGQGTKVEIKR	Condition not met
hz-Ab35-2.1 (antibody, human IgG1, kappa, V domains shown, Humanized antibody) VH: QVQLVQSGAEVKKPGASVKVSCKASGYTFTSSDINWVRQRPGQGLEWMGWIYPRDGSKKYAQKFQGRVTMTVDTSTSTVYMELSSLRSEDTAVYYCATRFATVVSNYGLDPWGQGTLVTVSS VL: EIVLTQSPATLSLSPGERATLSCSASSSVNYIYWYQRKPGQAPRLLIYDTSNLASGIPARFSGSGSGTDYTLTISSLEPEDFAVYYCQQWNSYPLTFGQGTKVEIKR	Condition not met
ch-Ab2 (antibody, human IgG1, kappa, V domains shown, also called chimeric antibody of Ab2) VH: EVQLVESGPGLVAPSQSLSITCTVSGFSLTYYGIDWVRQPPGKGLEWLGVIWGSGNTKYNSALMSRLSISKDNSKSQVFLRMNSLQSDDTAIYYCARFYEGFAYWGQGTLVTVSA VL: AIVLTQSPSSMYASLGERVTITCKASQDINSYLSWFQQKPGKSPKTLIYRANRLVDGVPSRFSGSGSGQDYSLTISSLEYEDMGIYYCLQYDEFPLTFGVGTKLELKR	Condition not met
hz-Ab2-1.4 (antibody, human IgG1, kappa, V domains shown, Humanized antibody) VH: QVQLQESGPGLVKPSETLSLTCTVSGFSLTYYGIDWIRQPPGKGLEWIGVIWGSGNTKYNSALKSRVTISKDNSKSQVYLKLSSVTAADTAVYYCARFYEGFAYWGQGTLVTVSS VL: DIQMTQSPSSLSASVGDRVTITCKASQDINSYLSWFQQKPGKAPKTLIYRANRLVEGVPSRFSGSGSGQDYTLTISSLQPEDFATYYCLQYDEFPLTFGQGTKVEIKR	Condition not met
ch-Ab35 (antibody, human IgG1, kappa, V domains shown, Mouse VH/VL on human IgG1 and human kappa constant regions; also called chimeric antibody of Ab35) VH: EVQLQQSGPDLVRPGASVKLSCKASGYTFTSSDINWVKQRPGQGLEWIGWIYPRDGSKKYNEKFKGKATLTVDTSSSTAYMEVHSLTSEDSAVYFCATRFATVVSNYGLDPWGQGTSVTVSS VL: AIVLTQSPAIMSASPGEKVTMTCSASSSVNYIYWYQRKPGSSPRLLIYDTSNLASGVPVRFSGSGSGTSYSLTISRMEAEDAATYYCQQWNSYPLTFGAGTKLELKR	Condition not met
hz-Ab35-2.3 (antibody, human IgG1, kappa, V domains shown, Humanized antibody) VH: QVQLVQSGAEVKKPGASVKVSCKASGYTFTSSDINWVRQRPGQGLEWMGWIYPRDGSKKYNEKFKGRVTMTVDTSTSTVYMELSSLRSEDTAVYYCATRFATVVSNYGLDPWGQGTLVTVSS VL: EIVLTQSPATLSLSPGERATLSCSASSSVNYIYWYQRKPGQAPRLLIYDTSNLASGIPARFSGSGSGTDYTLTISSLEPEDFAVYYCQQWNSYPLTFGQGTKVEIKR	Condition not met
hz-Ab21-2.2 (antibody, human IgG1, kappa, V domains shown, Humanized antibody) VH: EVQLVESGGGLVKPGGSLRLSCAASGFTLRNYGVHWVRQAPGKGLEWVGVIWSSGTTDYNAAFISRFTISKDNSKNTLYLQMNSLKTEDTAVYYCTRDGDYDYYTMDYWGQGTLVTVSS VL: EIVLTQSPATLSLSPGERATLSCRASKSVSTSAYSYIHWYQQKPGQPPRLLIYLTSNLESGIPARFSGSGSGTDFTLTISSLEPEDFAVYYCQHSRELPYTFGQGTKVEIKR	Condition met
hz-Ab21-2.1 (antibody, human IgG1, kappa, V domains shown, Humanized antibody) VH: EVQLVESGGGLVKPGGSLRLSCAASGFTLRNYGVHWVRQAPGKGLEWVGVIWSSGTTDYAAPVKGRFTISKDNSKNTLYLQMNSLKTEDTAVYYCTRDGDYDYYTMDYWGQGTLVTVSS VL: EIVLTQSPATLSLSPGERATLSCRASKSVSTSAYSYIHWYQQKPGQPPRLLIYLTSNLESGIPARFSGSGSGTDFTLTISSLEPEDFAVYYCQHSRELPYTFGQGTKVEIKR	Condition met
